Data credit: patent US11098061B2

- tested system: MK2 (Homo sapiens (Human), UniProt P49137)
- Sequence (P49137 whole entry): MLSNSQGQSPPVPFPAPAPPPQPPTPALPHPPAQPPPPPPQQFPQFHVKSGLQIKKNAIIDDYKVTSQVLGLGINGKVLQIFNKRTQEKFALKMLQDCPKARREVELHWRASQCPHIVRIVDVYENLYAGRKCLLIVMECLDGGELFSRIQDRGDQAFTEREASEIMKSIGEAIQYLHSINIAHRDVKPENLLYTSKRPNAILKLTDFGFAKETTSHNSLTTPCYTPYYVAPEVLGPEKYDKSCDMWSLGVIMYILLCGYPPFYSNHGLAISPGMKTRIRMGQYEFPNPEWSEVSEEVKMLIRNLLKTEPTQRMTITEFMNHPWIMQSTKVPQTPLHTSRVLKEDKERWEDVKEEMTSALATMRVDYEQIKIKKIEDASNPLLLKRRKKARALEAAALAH
- test name: MK2 cellular assay (Hsp27 phosphorylation in Thp-1 cells)
- study conditions: differentiated Thp-1 cells, compound 1 hour, 50 ng/ml LPS 15 minutes, phosphorylation of Hsp27; read-out: MK2EC50
Quick reference: EC50 of the listed items.

Below, each entry is followed by its recorded EC50 result.
> print(dat)
                                   compound                             tested.system  reported.value
1  C=CC(=O)N1CCOc2ccc(NC(=O)c3ccc4sc5c(c4c3)NC[C@@H](C)NC5=O)cc21 [III-11]  MK2 (Homo sapiens (Human), UniProt P49137)        < 100 nM
2  C=CC(=O)Nc1cc(-c2cc3c(ccc4c5c(n(C)c43)CCC5=O)cn2)ccc1N1CCN(C)CC1 [II-e-15]  MK2 (Homo sapiens (Human), UniProt P49137)   101 to 500 nM
3  C=CC(=O)Nc1cc(NC(=O)c2ccc3cc4n(c3c2)C2(CCC2)CNC4=O)ccc1N1CCN(C)CC1 [Compound V-15]  MK2 (Homo sapiens (Human), UniProt P49137)   101 to 500 nM
4  C=CC(=O)Nc1cc(NC(=O)c2ccc3sc4c(c3c2)NC[C@@H](C)NC4=O)ccc1OCCOC [III-7]  MK2 (Homo sapiens (Human), UniProt P49137)       > 1000 nM
5  C=CC(=O)Nc1cc(-c2nccc(-c3cc4n(c3)CCNC4=O)n2)ccc1OC [V-c-2]  MK2 (Homo sapiens (Human), UniProt P49137)       > 1000 nM
6  C=CC(=O)N1C[C@H](C)Oc2ccc(NC(=O)c3ccc4sc5c(c4c3)NC[C@@H](C)NC5=O)cc21 [III-53]  MK2 (Homo sapiens (Human), UniProt P49137)       > 1000 nM
7  C=CC(=O)N1C[C@@H](C)Oc2ccc(NC(=O)c3ccc4sc5c(c4c3)NC[C@@H](C)NC5=O)cc21 [III-31]  MK2 (Homo sapiens (Human), UniProt P49137)        < 100 nM
8  C=CC(=O)Nc1cc(NC(=O)c2ccc3sc4c(c3c2)NC[C@@H](C)NC4=O)ccc1F [III-6]  MK2 (Homo sapiens (Human), UniProt P49137)        < 100 nM

Data request, read-out EC50, for C=CC(=O)N1CCOc2ncc(-c3cc4c(cn3)CCc3c-4[nH]c4c3C(=O)NC3(CC3)C4)cc21 [II-9]
> 1000 nM

Data request, read-out EC50, for C=CC(=O)Nc1cc(-c2ccc3c(ccc4sc5c(c43)NC[C@@H](C)NC5=O)n2)ccc1OCCN(C)C [III-40]
< 100 nM

Data request, read-out EC50, for C=CC(=O)Nc1cc(-c2cc3c(cn2)CCc2c-3[nH]c3c2C(=O)NCC3)ccc1OCCOC [II-16]
< 100 nM

Data request, read-out EC50, for C=CC(=O)Nc1cc(-c2cc(-c3cc4c([nH]3)C3(CCCNC3)CNC4=O)ccn2)ccc1F (stereo not shown) [Compound I-8]
> 1000 nM

Data request, read-out EC50, for C=CS(=O)(=O)N1CCC[C@H](NC(=O)c2ccc3sc4c(c3c2)NC[C@@H](C)NC4=O)C1 [III-43]
< 100 nM

Data request, read-out EC50, for C=CC(=O)Nc1cc(-c2nccc(-c3cc4c([nH]3)C3(CCCNC3)CNC4=O)n2)ccc1OCCOC (racemic) [Compound I-7]
501 to 999 nM

Data request, read-out EC50, for C=CC(=O)Nc1cc(-c2cc3c(cn2)CCc2c-3[nH]c3c2C(=O)NC2(CC2)C3)cnc1OCCOC [II-8]
< 100 nM

Data request, read-out EC50, for C=CC(=O)Nc1cc(C)cc(-c2cc3c(ccc4c5c([nH]c43)CCC5=O)cn2)c1 [II-e-22]
101 to 500 nM
